src = patent US20250206732A1

Property: Dmax; scope: individual molecules
# assay-system: AsPC-1 HiBiT-KRASG12D (Homo sapiens, UniProt P01116, G12D)
# Construct: insert the HiBiT tag onto the N-terminus of one or more of the endogenous KRAS alleles; endogenous in cells; host or cells: AsPC-1 (ATCC CRL-1682), CRISPR-Cas9 knock-in clone, one tagged allele
# Sequence (P01116 1-188 isoform P01116-2 G12D): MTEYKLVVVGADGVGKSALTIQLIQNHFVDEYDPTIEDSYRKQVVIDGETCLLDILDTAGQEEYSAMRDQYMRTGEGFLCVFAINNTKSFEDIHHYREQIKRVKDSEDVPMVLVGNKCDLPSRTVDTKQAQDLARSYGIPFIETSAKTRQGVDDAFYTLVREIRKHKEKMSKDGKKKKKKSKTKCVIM
# method-notes: HiBiT degradation assay (G12D), AsPC-1 HiBiT-KRASG12D cells
# Format: cell-based
# test-settings: ASPC1, AsPC-1 HiBiT-KRASG12D cells, 24 hours treatment, maximum degradation observed

>  <molecule>
CCc1cccc2cc(O)cc(-c3ncc4c(N5CC6CCC(C5)N6)nc(OC[C@@H]5CC[C@@H](COC(=O)N6CC(Oc7cc([C@@H](C(=O)N8C[C@H](O)C[C@H]8C(=O)N[C@@H](C)c8ccc(-c9scnc9C)cc8)C(C)C)on7)C6)N5C)nc4c3F)c12 [Compound 291]

>  <Dmax>
< 20%

$$$$
>  <molecule>
CCc1cccc2cc(O)cc(-c3ncc4c(N5CC6CCC(C5)N6)nc(OC[C@@]56CCCN5[C@H](COC(=O)N5CC7(C5)CN(c5cc([C@H](C(=O)N8C[C@H](O)C[C@H]8C(=O)N[C@@H](C)c8ccc(-c9scnc9C)cc8)C(C)C)on5)C7)CC6)nc4c3F)c12 [Compound 112]

>  <Dmax>
80 to 100%

$$$$

----------
Property: DC50; scope: individual compounds
# assay-system: AsPC-1 HiBiT-KRASG12D (Homo sapiens, UniProt P01116, G12D)
# Construct: insert the HiBiT tag onto the N-terminus of one or more of the endogenous KRAS alleles; endogenous in cells; host or cells: AsPC-1 (ATCC CRL-1682), CRISPR-Cas9 knock-in clone, one tagged allele
# method-notes: HiBiT degradation assay (G12D), AsPC-1 HiBiT-KRASG12D cells
# Type: cell-based
# test-settings: AsPC-1 HiBiT-KRASG12D cells, 24 hours treatment, HiBiT luminescence

>  <compound>
Cc1ncsc1-c1ccc([C@H](C)NC(=O)[C@@H]2C[C@@H](O)CN2C(=O)[C@@H](c2cc(N3CCN(C(=O)OC[C@@H]4CC[C@]5(COc6nc(N7CC8CCC(C7)N8)c7cc(Cl)c(-c8cc(O)cc9ccccc89)c(F)c7n6)CCCN45)CC3)no2)C(C)C)cc1 (relative stereo) [Compound 328]

>  <DC50>
< 600 nM

$$$$
>  <compound>
CCc1cccc2cc(O)cc(-c3ncc4c(N5CC6CCC(C5)N6)nc(OC[C@@]56CCCN5[C@H](COC(=O)N5CC(Oc7cc([C@H](C(=O)N8C[C@H](O)C[C@H]8C(=O)N[C@@H](C)c8ccc(-c9scnc9C)cc8)C(C)C)on7)C5)CC6)nc4c3F)c12 [Compound 126]

>  <DC50>
< 600 nM

$$$$
>  <compound>
CCc1cccc2cc(O)cc(-c3ncc4c(N5CC6CCC(C5)N6)nc(OC[C@@]56CCCN5[C@H](COC(=O)N5CC(COc7cc([C@H](C(=O)N8C[C@H](O)C[C@H]8C(=O)N[C@@H](C)c8ccc(-c9scnc9C)cc8)C(C)C)on7)C5)CC6)nc4c3F)c12 [Compound 114]

>  <DC50>
< 600 nM

$$$$
>  <compound>
CCc1cccc2cc(O)cc(-c3ncc4c(N5CCCCCC5)nc(OC[C@@H]5CC[C@@H](COC(=O)N6CC(Oc7cc([C@H](C(=O)N8C[C@H](O)C[C@H]8C(=O)N[C@@H](C)c8ccc(-c9scnc9C)cc8)C(C)C)on7)C6)N5C)nc4c3F)c12 [Compound 241]

>  <DC50>
< 600 nM

$$$$
>  <compound>
CCc1cccc2cc(O)cc(-c3ncc4c(N5CC6CCC(C5)N6)nc(OC[C@@]56CCCN5[C@H](CN5CCC(F)(COc7cc([C@@H](C(=O)N8C[C@H](O)C[C@H]8C(=O)N[C@@H](C)c8ccc(-c9scnc9C)cc8)C(C)C)on7)CC5)CC6)nc4c3F)c12 [Compound 336]

>  <DC50>
1000 to 3000 nM

$$$$
>  <compound>
CCc1cccc2cc(O)cc(-c3ncc4c(N5CC6CCC(C5)N6)nc(OC[C@]56CCCN5C[C@H](Oc5cc([C@@H](C(=O)N7C[C@H](O)C[C@H]7C(=O)N[C@@H](C)c7ccc(-c8scnc8C)cc7)C(C)C)on5)CC6)nc4c3F)c12 [Compound 319]

>  <DC50>
1000 to 3000 nM

$$$$
>  <compound>
C#Cc1c(F)ccc2cc(O)cc(-c3ncc4c(N5CC6CCC(C5)N6)nc(OCCN5CCC(C6CCN(c7cc([C@@H](C(=O)N8C[C@H](O)C[C@H]8C(=O)N[C@@H](C)c8ccc(-c9scnc9C)cc8)C(C)C)on7)CC6)CC5)nc4c3F)c12 [Compound 177]

>  <DC50>
< 600 nM

$$$$
>  <compound>
CCc1cccc2cc(O)cc(-c3ncc4c(N5CC6CCC(C5)N6)nc(OC[C@@]56CCCN5[C@H](COC(=O)N5CCN(c7cc([C@H](C(=O)N8C[C@H](O)C[C@H]8C(=O)N[C@@H](C)c8ccc(-c9scnc9C)cc8)C(C)C)on7)[C@H](C)C5)CC6)nc4c3F)c12 [Compound 327]

>  <DC50>
< 600 nM

$$$$
>  <compound>
CCc1cccc2cc(O)cc(-c3ncc4c(N5CCCCCC5)nc(OC[C@]56CCCN5[C@H](COC(=O)N5CC7(C5)CN(c5cc([C@H](C(=O)N8C[C@H](O)C[C@H]8C(=O)N[C@@H](C)c8ccc(-c9scnc9C)cc8)C(C)C)on5)C7)CC6)nc4c3F)c12 [Compound 283]

>  <DC50>
< 600 nM

$$$$
>  <compound>
CCc1cccc2cc(O)cc(-c3ncc4c(N5CCCCCC5)nc(OC[C@@H]5CC[C@@H](COC(=O)N6CCN(c7cc([C@H](C(=O)N8C[C@H](O)C[C@H]8C(=O)N[C@@H](C)c8ccc(-c9scnc9C)cc8)C(C)C)on7)CC6)N5C)nc4c3F)c12 [Compound 272]

>  <DC50>
< 600 nM

$$$$
>  <compound>
C#Cc1c(F)ccc2cc(O)cc(-c3ncc4c(N5CC6CCC(C5)N6)nc(OCCN5CCC(CC6CN(c7cc([C@H](C(=O)N8C[C@H](O)C[C@H]8C(=O)N[C@@H](C)c8ccc(-c9ccnn9C)cc8)C(C)C)on7)C6)CC5)nc4c3F)c12 [Compound 156]

>  <DC50>
< 600 nM

$$$$
>  <compound>
CCc1cccc2cc(O)cc(-c3ncc4c(N5CC6CCC(C5)N6)nc(OC[C@]56CCCN5[C@H](COC(=O)N5CCN(c7cc([C@@H](C(=O)N8C[C@H](O)C[C@H]8C(=O)N[C@@H](C)c8ccc(-c9scnc9C)cc8)C(C)C)on7)[C@@H](C)C5)CC6)nc4c3F)c12 [Compound 124]

>  <DC50>
< 600 nM

$$$$
>  <compound>
Cc1ncsc1-c1ccc([C@H](C)NC(=O)[C@@H]2C[C@@H](O)CN2C(=O)[C@@H](c2cc(OC3CN(C(=O)OC[C@@H]4CC[C@@H](COc5nc(N6CC7CCC(C6)N7)c6cnc(-c7cc(O)cc(Cl)c7C7CC7)c(F)c6n5)N4C)C3)no2)C(C)C)cc1 [Compound 285]

>  <DC50>
< 600 nM

$$$$
>  <compound>
CCc1cccc2cc(O)cc(-c3ncc4c(N5CC6CCC(C5)N6)nc(OCCN5CC[C@@H]6CN(c7cc([C@@H](C(=O)N8C[C@H](O)C[C@H]8C(=O)N[C@@H](C)c8ccc(-c9scnc9C)cc8)C(C)C)on7)C[C@@H]6C5)nc4c3F)c12 (relative stereo) [Compound 72]

>  <DC50>
> 3000 nM

$$$$
>  <compound>
CCc1cccc2cc(O)cc(-c3ncc4c(N5CC6CCC(C5)N6)nc(OCCN5CC[C@H]6CN(c7cc([C@H](C(=O)N8C[C@H](O)C[C@H]8C(=O)N[C@@H](C)c8ccc(-c9scnc9C)cc8)C(C)C)on7)C[C@H]6C5)nc4c3F)c12 (relative stereo) [Compound 69]

>  <DC50>
< 600 nM

$$$$

----------
# assay-system: AsPC-1 HiBiT-KRASG12D (Homo sapiens, UniProt P01116, G12D)
# Construct: insert the HiBiT tag onto the N-terminus of one or more of the endogenous KRAS alleles; endogenous in cells; host or cells: AsPC-1 (ATCC CRL-1682), CRISPR-Cas9 knock-in clone, one tagged allele
# method-notes: HiBiT degradation assay (G12D), AsPC-1 HiBiT-KRASG12D cells
# Format: cell-based
# test-settings: AsPC-1 HiBiT-KRASG12D cells, 24 hours treatment, HiBiT luminescence
measure: DC50

>  <compound>
CCc1cccc2cc(O)cc(-c3ncc4c(N5CC6CCC(C5)N6)nc(OCCN5CCC(CN6CC(Oc7cc([C@@H](C(=O)N8C[C@H](O)C[C@H]8C(=O)N[C@@H](C)c8ccc(-c9scnc9C)cc8)C(C)C)on7)C6)CC5)nc4c3F)c12

>  <observed>
> 3 µM

$$$$
>  <compound>
Cc1ncsc1-c1ccc([C@H](C)NC(=O)[C@@H]2C[C@@H](O)CN2C(=O)[C@@H](c2cc(OC[C@@H]3CC[C@]4(COc5nc(N6CC7CCC(C6)N7)c6cnc(-c7cc(O)cc(Cl)c7C7CC7)c(F)c6n5)CCCN34)no2)C(C)C)cc1

>  <observed>
< 0.6 µM

$$$$
>  <compound>
CCc1cccc2cc(O)cc(-c3ncc4c(N5CC6CCC(C5)N6)nc(OCCN5CCC(C)(CCOc6cc([C@H](C(=O)N7C[C@H](O)C[C@H]7C(=O)N[C@@H](C)c7ccc(-c8scnc8C)cc7)C(C)C)on6)CC5)nc4c3F)c12

>  <observed>
> 3 µM

$$$$
>  <compound>
CCc1cccc2cc(O)cc(-c3ncc4c(N5CC6CCC(C5)N6)nc(OCCN5CCC(C6CN(c7cc([C@H](C(=O)N8C[C@H](O)C[C@H]8C(=O)N[C@@H](C)c8ccc(-c9scnc9C)cc8)C(C)C)on7)C6)CC5)nc4c3F)c12 (single isomer, unassigned)

>  <observed>
< 0.6 µM

$$$$
